As shown below, each of these molecules has a reported Papp A→B at 1 h, 10 μM value.
Experiment: MDR1-MDCK effective efflux assay (Transwell, 10 μM, 1 hour), wild-type MDCK cells
Assay type: in vitro ADME
Details: dog, MDCK, pH 7.4, Papp AB WT

{"MOLECULE": "O=C(C1CC1)N1CC2(CC(c3nnc4n3-c3ccc(Cl)cc3CN(C(=O)C(F)(F)F)C4)C2)C1", "QUANTITY KIND": "Papp A→B at 1 h, 10 μM", "ENDPOINT VALUE": "< 7 ×10⁻⁶ cm/s"}

**Query** Reported Papp A→B at 1 h, 10 μM, molecule CC(C)OC(=O)N1Cc2cc(Cl)ccc2-n2c(nnc2C2CC3(C2)CN(C(=O)C2CC2)C3)C1 : ____
**Result** > 20 ×10⁻⁶ cm/s

**Query** Follow-up entry: COc1ccc2c(c1)CN(C)Cc1nnc(C3CC4(C3)CN(c3cnccn3)C4)n1-2
**Result** > 20 ×10⁻⁶ cm/s

**Query** Follow-up entry: O=C(C(F)F)N1Cc2cc(Cl)ccc2-n2c(nnc2C2CC3(C2)CN(c2ccc(F)cn2)C3)C1
**Result** > 20 ×10⁻⁶ cm/s

**Query** Follow-up entry: CC1c2nnc(C3CC4(C3)CN(c3ccc(F)cn3)C4)n2-c2ccc(Cl)cc2CN1C(=O)OC(CF)CF (centres unmarked)
**Result** > 20 ×10⁻⁶ cm/s

**Query** Follow-up entry: CC(C)OC(=O)N1Cc2cc(Cl)ccc2-n2c(C3CC4(C3)CN(c3ccc(F)cn3)C4)nnc2C1C (centres unmarked)
**Result** > 20 ×10⁻⁶ cm/s

**Query** Follow-up entry: O=C(C1CC1)N1CC2(CC(c3nnc4n3-c3ccc(Cl)cc3CN(C(=O)C3(F)CC3)C4)C2)C1
**Result** 10 to 20 ×10⁻⁶ cm/s
